Target: AhR (Rattus norvegicus)
Experiment: H4IIE-luc transactivation bioassay (AhR-mediated potency)
reported_property: pEC50
Please express pEC50 as -log10 of the molar concentration.

Using known records, supply pEC50 for c1ccc2c(c1)cc1ccc3c4ccccc4cc4ccc2c1c43 [Dibenzo[b,def]chrysene]
4.85

Using known records, supply pEC50 for Oc1ccc2ccc3c4ccccc4ccc3c2c1 [3-hydroxychrysene]
3.85

Using known records, supply pEC50 for Oc1cccc2c1ccc1c3ccccc3ccc21 [1-hydroxychrysene]
4.06

Using known records, supply pEC50 for Cc1ccc2ccc3c4ccccc4ccc3c2c1 [3-methylchrysene]
5.96

Using known records, supply pEC50 for c1ccc2c(c1)cc1ccc3cccc4c5ccccc5c2c1c34 [Dibenzo[def,p]chrysene]
4.12

Using known records, supply pEC50 for c1ccc2c(c1)ccc1c3ccccc3ccc21 [Chrysene]
5.14

====

Parameter EC50: see the listing below.
Target: AhR (Rattus norvegicus, UniProt P41738)
Sequence (P41738 10-853): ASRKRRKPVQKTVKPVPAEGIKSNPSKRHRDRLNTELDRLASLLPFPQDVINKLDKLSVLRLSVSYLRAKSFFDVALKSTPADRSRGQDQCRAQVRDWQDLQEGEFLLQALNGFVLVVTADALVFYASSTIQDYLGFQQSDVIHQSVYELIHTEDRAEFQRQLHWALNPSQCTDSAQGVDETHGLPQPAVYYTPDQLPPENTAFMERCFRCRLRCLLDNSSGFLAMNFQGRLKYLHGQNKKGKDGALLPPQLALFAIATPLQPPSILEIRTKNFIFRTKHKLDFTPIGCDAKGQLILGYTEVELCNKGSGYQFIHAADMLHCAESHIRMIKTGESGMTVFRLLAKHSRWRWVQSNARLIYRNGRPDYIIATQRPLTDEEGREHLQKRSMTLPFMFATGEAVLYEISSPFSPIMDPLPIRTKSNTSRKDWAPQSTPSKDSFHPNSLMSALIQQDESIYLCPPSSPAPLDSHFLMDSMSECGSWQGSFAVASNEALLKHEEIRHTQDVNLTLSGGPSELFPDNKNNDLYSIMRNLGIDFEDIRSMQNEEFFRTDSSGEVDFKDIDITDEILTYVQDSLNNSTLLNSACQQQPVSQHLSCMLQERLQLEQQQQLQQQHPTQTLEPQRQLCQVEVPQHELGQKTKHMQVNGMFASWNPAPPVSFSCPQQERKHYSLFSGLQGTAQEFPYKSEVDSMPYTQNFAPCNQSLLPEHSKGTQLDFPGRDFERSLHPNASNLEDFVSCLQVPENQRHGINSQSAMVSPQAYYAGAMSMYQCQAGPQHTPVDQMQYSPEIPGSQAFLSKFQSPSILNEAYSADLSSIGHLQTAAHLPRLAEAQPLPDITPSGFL
Experiment: H4IIE-luc transactivation bioassay (AhR-mediated potency)
A number alone suffices; assume µM.

molecule	reported_property	unit_name	number
Cc1cccc2c1ccc1c3ccccc3ccc21	EC50	µM	1.9
c1ccc2cc3c(ccc4c5ccccc5ccc34)cc2c1 [Benzo[b]chrysene]	EC50	µM	2.8
Oc1ccc2c(ccc3c4ccccc4ccc23)c1 [2-hydroxychrysene]	EC50	µM	59
c1ccc2c(c1)ccc1c2ccc2c3ccccc3ccc21 [Benzo[a]chrysene]	EC50	µM	20
Cc1ccc2c(ccc3c4ccccc4ccc23)c1	EC50	µM	0.66

For the next question, use this molecule.
Using known records, supply EC50 for c1ccc2c(c1)ccc1c2ccc2ccc3ccccc3c21 [Benzo[c]chrysene]
1.3
